Molecular target: HIV integrase (Human immunodeficiency virus type 1 group M subtype B, UniProt P12497, F1332H)
Construct: HIV integrase full length gene
Assay: Determination of enzyme (HIV integrase) inhibitory activity (strand transfer, microtiter plate, absorbance at 450 nm)
Settings: recombinant HIV integrase (F185H) expressed in E. coli; donor DNA on streptavidin plate, digoxigenin target DNA; 37° C.
READOUT_NAME: pIC50
Scale: negative log10 of molar concentration, which is what pIC50 denotes.

In the examples that follow, each entry is paired with its recorded pIC50.
O=C(O)c1cn(CCn2ccnc2)c2ccc(Cc3cccc(Cl)c3Cl)cc2c1=O [Example 1-4] | 6.62
NC(=O)Cn1cc(C(=O)O)c(=O)c2cc(Cc3cccc(Cl)c3Cl)ccc21 [Example 1-7] | 7.17
CCOc1cc2c(cc1Cc1cccc(Cl)c1F)c(=O)c(C(=O)O)cn2[C@H](CO)C(C)C [Example 4-30] | 8.54

Task: Let me know recorded pIC50 for CS(=O)(=O)Cn1cc(C(=O)O)c(=O)c2cc(Cc3cccc(Cl)c3Cl)ccc21 [Example 1-69] , thanks.
Output: 7.13

###

Target: HIV integrase (Human immunodeficiency virus type 1 group M subtype B, UniProt P12497, F1332H)
Construct: HIV integrase full length gene
Assay: Determination of enzyme (HIV integrase) inhibitory activity (strand transfer, microtiter plate, absorbance at 450 nm)
Settings: recombinant HIV integrase (F185H) expressed in E. coli; donor DNA on streptavidin plate, digoxigenin target DNA; 37° C.
pIC50: −log10 of the molar value.
Cut-off 8 on pIC50, inclusive. At or above means True; below means False.

Here are 5 molecules together with their reported answers.
O=C(O)c1cn(CCO)c2ccc(Cc3cccc4ccccc34)cc2c1=O [Example 1-11] | False
O=C(O)c1cn(C2CCCC2)c2ccc(Cc3cccc(Cl)c3Cl)cc2c1=O [Example 3-13] | False
CC(=O)Nc1cc(Cc2cccc(Cl)c2F)cc2c(=O)c(C(=O)O)cn(CCO)c12 [Example 3-39] | False
O=C(O)c1cn(CCO)c2ccc(Cc3c(F)ccc(F)c3Cl)cc2c1=O [Example 1-73] | False
COc1cc(Cc2cccc(Cl)c2F)cc2c(=O)c(C(=O)O)cn([C@H](CO)C(C)(C)C)c12 [Example 4-34] | True

Consider the record given below.
Task: # check: pIC50 of O=C(O)Cn1cc(C(=O)O)c(=O)c2cc(Cc3cccc(Cl)c3Cl)ccc21 [Example 1-28] is greater than or equal to 8
Output: False

###

Target: HIV integrase (Human immunodeficiency virus type 1 group M subtype B, UniProt P12497, F1332H)
Construct: HIV integrase full length gene
Assay: Determination of enzyme (HIV integrase) inhibitory activity (strand transfer, microtiter plate, absorbance at 450 nm)
Details: recombinant HIV integrase (F185H) expressed in E. coli; donor DNA on streptavidin plate, digoxigenin target DNA; 37° C.
Criterion: IC50 strictly under 50 nM. Met: fulfilled. Not met: not fulfilled.

Here are 3 compounds together with their reported answers.
O=C(O)c1cn(CCO)c2ccc(Cc3cccc(F)c3F)cc2c1=O | not fulfilled
Nn1cc(C(=O)O)c(=O)c2cc(Cc3cccc(Cl)c3Cl)ccc21 | not fulfilled
CC(C)Oc1cc(Cc2cccc(Cl)c2F)cc2c(=O)c(C(=O)O)cn([C@H](CO)C(C)(C)C)c12 | fulfilled

Task: Given CC(C)(C)n1cc(C(=O)O)c(=O)c2cc(Cc3cccc(Cl)c3F)ccc21 , is recorded IC50 strictly lower than 50 nM?
Output: fulfilled

Task: Given CCCOc1cc(Cc2cccc(Cl)c2F)cc2c(=O)c(C(=O)O)cn(CCO)c12 , is recorded IC50 strictly lower than 50 nM?
Output: fulfilled
